Assay: Human pregnane X receptor (PXR) small molecule agonists, qHTS cell viability counter screen (AID 1346977); note: nearly all actives have a fitted effect of over 50% in size
Conditions: PXR-Luc HepG2 viability, CellTiter-Fluor, 24 h; series mostly up to 92.4 µM
Excerpt: U.S. Tox21 Program National Center for Advancing Translational Sciences [NCATS] NIH Chemical Genomics Center [NCGC] U.S. Environmental Protection Agency [EPA] National Institutes of Environmental Health Sciences [NIEHS] National Toxicology Program [NTP] U.S. Food and Drug Administration [FDA] […]
Results filed as inconclusive are left out. Calls of active or inactive are those of the source. Calls come from the whole dose curve; as a rule, active = well fitted cell-killing curve with a large enough effect in the repeat runs; inconclusive = weak or mixed curves, or effect the other way; inactive = flat fitted curve, though single readings scatter.
Respond with a class label; see yes (1) = active, no (0) = inactive

1) O=C(c1ccc(O)cc1O)c1ccc(O)cc1O : no (0)
2) Cc1ccc(O)c2ncccc12 : yes (1)
3) NNC(=O)c1cccc(C(=O)NN)c1 : no (0)

Fill in: this test's call for CC1=C(C(=O)OC(C)C)C(c2cccc([N+](=O)[O-])c2)C(C(=O)OC2CN(C(c3ccccc3)c3ccccc3)C2)=C(N)N1 (configuration not stated) is ___
yes (1)

Fill in: this test's call for `CCN(Cc1cccnc1)C(=O)c1cccc(Cl)c1[C@]1(C)C(=O)N(Cc2ccc(OC)cc2OC)c2ccc(Cl)cc21` is ___
yes (1)

Fill in: this test's call for `CCCN(CCC)c1c([N+](=O)[O-])cc(C(F)(F)F)c(N)c1[N+](=O)[O-]` is ___
yes (1)

Fill in: this test's call for `CCCCCCCCCCCCCCCS(=O)(=O)Oc1ccccc1` is ___
no (0)

Fill in: this test's call for `CC1(C)CCC(C)(C)c2cc(C(=O)Nc3ccc(C(=O)O)cc3)ccc21` is ___
no (0)

Fill in: this test's call for `CC[C@H](c1ccc(O)cc1)[C@@H](CC)c1ccc(O)cc1` is ___
no (0)

Fill in: this test's call for `CCCCCCCCCCCCCCCC(=O)OC[C@H](O)[C@H]1OC(=O)C(O)=C1O` is ___
no (0)

Fill in: this test's call for `Cc1[nH]nc2c1N=C(c1ccccc1Cl)c1cc([N+](=O)[O-])ccc1N2` is ___
yes (1)

Fill in: this test's call for `COc1cc(-c2nc(NC(=O)c3cc4cc(C)cc(C)c4n3CC(=O)O)sc2CCC2CCCCC2)c(OC)cc1Cl` is ___
yes (1)

----------
Assay: qHTS RealTime-Glo MT Cell Viability Assay in HEK293 cells - 0 hour (AID 1224880); note: nearly all actives have a fitted effect of over 45% in size
Settings: RealTime-Glo luminescence; series mostly up to 76.8 µM
Excerpt: U.S. Tox21 Program National Center for Advancing Translational Sciences [NCATS] NIH Chemical Genomics Center [NCGC] U.S. Environmental Protection Agency [EPA] National Institutes of Environmental Health Sciences [NIEHS] National Toxicology Program [NTP] U.S. Food and Drug Administration [FDA] Tox21 Assay Overview: Measure of cell viability is critical in the cell-base assay. Analysis of cell viability is necessary for the characterization of cell responses to cytotoxic drugs and environmental stress. […]
Results filed as inconclusive are left out. Calls of active or inactive are those of the source. Calls come from the whole dose curve; as a rule, active = well fitted cell-killing curve with a large enough effect in the repeat runs; inconclusive = weak or mixed curves, or effect the other way; inactive = flat fitted curve, though single readings scatter.
Respond with a class label; see Yes = active, No = inactive

These solved cases illustrate the format of a correct answer.
1) CCCC1O[C@@H]2C[C@H]3[C@@H]4CCC5=CC(=O)C=C[C@]5(C)[C@H]4[C@@H](O)C[C@]3(C)[C@]2(C(=O)CO)O1 (stereo not given in full) : Yes
2) O=C1CCCCCN1SSN1CCCCCC1=O : No

Fill in: this test's call for `CC(C)(C)c1ccc(C(=O)CCCN2CCC(OC(c3ccccc3)c3ccccc3)CC2)cc1` is ___
No

Fill in: this test's call for `O=C1Cc2cc(CCN3CCN(c4nsc5ccccc45)CC3)c(Cl)cc2N1` is ___
No

Fill in: this test's call for Cc1nc(-c2ccc3c(c2)CCN(CCC2CCC(NC(=O)/C=C/c4ccc(F)cc4)CC2)CC3)no1 (stereo not given) is ___
No

Fill in: this test's call for `C=CC(=O)OCC(CO)(COC(=O)C=C)COC(=O)C=C` is ___
No

Fill in: this test's call for Cc1cccc(N(C)C(=S)Oc2ccc3c(c2)C2CCC3C2)c1 (stereo not given) is ___
No
